condition parameters: in isopentanol, 312.04 K

{"record smiles": "CCCCCOC(=O)Nc1nc(=O)n([C@@H]2O[C@H](C)[C@@H](O)[C@H]2O)cc1F", "solubility (mole fraction)": 0.0267}

----------
condition parameters: in n-pentanol, 297.33 K

{"record smiles": "CCCCCOC(=O)Nc1nc(=O)n([C@@H]2O[C@H](C)[C@@H](O)[C@H]2O)cc1F", "solubility (mole fraction)": 0.0101}

----------
condition parameters: in isopentanol, 288.76 K
readout type: solubility (mole fraction)

{"record smiles": "CCCCCOC(=O)Nc1nc(=O)n([C@@H]2O[C@H](C)[C@@H](O)[C@H]2O)cc1F", "measured result": 0.0057}
